Target: T1, EsCas13d, nuclease-dead (Eubacterium siraeum, UniProt B0MS50, R295A;H300A;R849A;H854A)
T1 sequence: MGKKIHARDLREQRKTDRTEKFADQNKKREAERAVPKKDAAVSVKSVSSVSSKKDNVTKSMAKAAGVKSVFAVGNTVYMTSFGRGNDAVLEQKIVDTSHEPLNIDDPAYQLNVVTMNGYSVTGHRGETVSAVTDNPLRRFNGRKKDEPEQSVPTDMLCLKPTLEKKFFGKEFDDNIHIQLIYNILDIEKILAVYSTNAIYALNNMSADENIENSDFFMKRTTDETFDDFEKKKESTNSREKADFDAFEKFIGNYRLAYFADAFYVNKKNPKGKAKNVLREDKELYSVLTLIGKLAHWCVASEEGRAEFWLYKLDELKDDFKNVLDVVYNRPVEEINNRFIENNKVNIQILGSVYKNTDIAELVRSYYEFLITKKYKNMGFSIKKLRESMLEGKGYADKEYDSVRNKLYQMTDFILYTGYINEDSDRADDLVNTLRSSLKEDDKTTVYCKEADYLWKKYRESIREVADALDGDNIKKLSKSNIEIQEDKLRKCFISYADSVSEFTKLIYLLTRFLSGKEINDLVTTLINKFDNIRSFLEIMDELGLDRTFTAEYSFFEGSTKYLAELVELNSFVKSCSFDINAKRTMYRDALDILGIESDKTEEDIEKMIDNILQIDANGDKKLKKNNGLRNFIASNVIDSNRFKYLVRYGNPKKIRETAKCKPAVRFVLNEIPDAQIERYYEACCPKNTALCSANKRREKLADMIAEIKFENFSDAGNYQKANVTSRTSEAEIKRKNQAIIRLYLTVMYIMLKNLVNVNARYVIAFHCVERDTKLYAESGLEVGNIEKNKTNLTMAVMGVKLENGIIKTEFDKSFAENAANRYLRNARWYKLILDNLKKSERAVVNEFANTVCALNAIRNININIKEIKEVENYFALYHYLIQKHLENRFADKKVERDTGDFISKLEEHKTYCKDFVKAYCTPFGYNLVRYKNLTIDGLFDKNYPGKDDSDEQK
Assay: crRNA (strand 1, pre-loaded); Mg2+; 40 mM Tris-HCl pH 7.5, 150 mM NaCl, 6 mM MgCl2, 1 mM DTT, 0.1% Tween-20, 0.2 mg/ml BSA; 25 C; 10 min per concentration, then washed
Settings: tags: His6-TwinStrep-SUMO cleaved; N-terminal SNAP kept (SNAP-Surface 488); label: 3' end held by stalled T7 RNA polymerase
value-kind: pKd
A value of pKd is the negative decimal logarithm of a concentration given in moles per litre.

1. target 1 C7G,A14U (mixed) RNA 1: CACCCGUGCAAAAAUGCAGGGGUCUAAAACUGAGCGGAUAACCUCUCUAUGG RNA 2: GGGAAUGGAUCCACAUCUACGAAUUCGUACCAUAGAGUGGUUAUGCGCUCACCGAGAUCGGAAGAGCACACGU	7.18
2. target 1 MT 5'PFS GCG 3'PFS UCU (mixed) RNA 1: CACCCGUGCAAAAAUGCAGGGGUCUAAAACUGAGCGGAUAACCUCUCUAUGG RNA 2: GGGAAUGGAUCCACAUCUACGAAUUCGCGCCAUAGAGAGGUUAUCCGCUCAUCUAGAUCGGAAGAGCACACGU	7.89

The recorded pKd for entry target 1 insU 3' of 6,insU 3' of 6 (mixed) RNA 1: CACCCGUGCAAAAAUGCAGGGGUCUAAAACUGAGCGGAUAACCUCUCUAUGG RNA 2: GGGAAUGGAUCCACAUCUACGAAUUCGUACCAUAGAGAGGUUAUCCUUGCUCACCGAGAUCGGAAGAGCACACGU equals 7.93

The recorded pKd for entry target 1 C2G,A16G (mixed) RNA 1: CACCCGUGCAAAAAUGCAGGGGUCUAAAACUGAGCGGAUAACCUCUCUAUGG RNA 2: GGGAAUGGAUCCACAUCUACGAAUUCGUACCAUAGGGAGGUUAUCCGCUGACCGAGAUCGGAAGAGCACACGU equals 7.48

The recorded pKd for entry target 1 C7U,G12U (mixed) RNA 1: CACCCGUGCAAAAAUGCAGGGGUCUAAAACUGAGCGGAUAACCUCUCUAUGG RNA 2: GGGAAUGGAUCCACAUCUACGAAUUCGUACCAUAGAGAGUUUAUUCGCUCACCGAGAUCGGAAGAGCACACGU equals 7.87

The recorded pKd for entry target 1 U11A,C21A (mixed) RNA 1: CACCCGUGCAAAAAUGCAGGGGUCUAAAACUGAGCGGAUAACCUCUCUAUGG RNA 2: GGGAAUGGAUCCACAUCUACGAAUUCGUACAAUAGAGAGGAUAUCCGCUCACCGAGAUCGGAAGAGCACACGU equals 7.19
